tested on: Rattus norvegicus; assay: Effect on behavioural activity in rat assessed as cocaine-induced lever response at 5 mg/kg, po pretreated with cocaine for 90 mins by drug-discrimination studies; assay type: functional
For each record, write down the corresponding Activity.
Return type: number; implicit unit %.

The compound CCCC(NC(C)(C)C)C(=O)c1ccc(Cl)c(Cl)c1 (centres undefined) showed Activity equal to 13

The compound CC(NC1CCCC1)C(=O)c1cccc(Cl)c1 (centres undefined) showed Activity equal to 0

The compound CCCCC(NC(C)(C)C)C(=O)c1cccc(Cl)c1 (centres undefined) showed Activity equal to 0

The compound CC(NC(C)(C)C)C(=O)c1ccccc1 (centres undefined) showed Activity equal to 0
